Values compiled from PubChem BioAssay (NCI).

System: RXF 393 renal
ASSAY_TEXT: NCI tumour cell line growth inhibition, 48 h; in the data active = GI50 below about 0.43 µM; inactive = the rest
Your reply should match one of these outcome classes. active, inactive

Query: Given O=C1c2ccccc2-c2c1c1ccccc1c(=O)n2CCNCCn1c2c(c3ccccc3c1=O)C(=O)c1ccccc1-2 , state the outcome it received in this test.
Result: inactive

Query: Would you mind doing Cc1cc2c(cc1Cl)S/C(=C/C(=O)O)C(Nc1cccc3nsnc13)=NS2(=O)=O as well?
Result: inactive

Query: Then CCN(CC)c1ccc(/C=C/C2=[N+](C)c3ccccc3C2(C)C)c(C)c1 ?
Result: active

Query: And for COc1cccc(COc2cc(-n3cnc4ccccc43)sc2C(N)=O)c1 ?
Result: inactive

Query: Same question, O=C1c2ccccc2-c2c1c1c(NCCCO)nc3ccccc3c1n2Cc1ccccc1 this time
Result: inactive
